# METHOD DESCRIPTION: chemical genetic growth profiling, strain panel (AID 1159580);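 also: tested at 20 µM; growth read once vehicle control cultures reached saturation at 30 °C; 1 = growth at the plate median or of vehicle wells; lower values mean less growth of the strain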
# COND: S. cerevisiae deletion strains, growth OD, locus YLL026W, stronger effect = lower value
Among all 5,500 compounds or so, about 2,000 (36%) were called active. Another 18% or so got no clear call; they are omitted. Some of the results follow.
MEASURE: normalized growth
Answers are plain numbers.

Consider the following illustrative entries.
NC(=O)c1cccc(N)c1 = 0.984
COC(=O)C[C@H]1C(C)(C)C(=O)[C@@H]2CC3=C(CC[C@]4(C)C3=CC(=O)O[C@H]4c3ccoc3)[C@@]1(C)C2=O = 0.982
CC(=O)OCC[C@H](C)CCC=C(C)C = 1.03
Cn1c(=O)c2[nH]cnc2n(C)c1=O = 1.02
C#CCCCCCCCCCCCC(=O)CC(O)COC(C)=O (configuration not stated) = 0.995
Nc1nc2ncc(=O)[nH]c2c(=O)[nH]1 = 0.982
CCCCCCCCCCCCCCCC(=O)OC1C(SC)OC(C(NC(=O)C2CC(CCC)CN2C)C(C)Cl)C(O)C1O (configuration not stated) = 0.974
CCOC(=O)c1ccc(O)cc1 = 1.01

Hello, I would appreciate it if you could give normalized growth for each entry below.
1. C[C@H]1CC[C@@H](C(C)(C)O)CC2=C1CC[C@@H]2C
2. Cc1c(S(=O)(=O)O)oc2c1C(=O)C(=O)c1c-2ccc2c1CCCC2(C)C
3. C#CCCCCCCCCCCCC(O)CC(O)CO (configuration not stated)
4. Cc1cc(-c2ccccc2)nnc1NCCN1CCOCC1

Given back:
1: 0.978; 2: 0.924; 3: 0.993; 4: 0.992
